- Test system: SR leukemia
- assay-comment: NCI-60 one-dose screen, 48 h
- condition-set: 10 µM unless noted
This is part of a sample that, as a whole, favours compounds with a hit. Of some 83,000 tested, about 20% had one in any assay. Active and inactive are the calls of the source. Rule for the calls: active = growth percent below 10; inactive = the rest.
// classify into active, inactive

Req: Entry Cc1c(C(=O)Nc2nc(-c3ccccc3)cs2)nnn1-c1ccccc1Br : call = ?
Resp: inactive

Req: Entry O=C(O)C[C@H](O)C[C@H](O)/C=C/c1c(C2CC2)nc2ccccc2c1-c1ccc(F)cc1 : call = ?
Resp: inactive

Req: Entry COc1ccc(S(=O)(=O)c2ccc(C(N)=O)cc2)cc1NC(=O)c1[nH]c(C)c2c1CCCCC2=O : call = ?
Resp: inactive

Req: Entry CN1CCn2c(c(Sc3ccc(C(=O)NO)cc3)c3ccccc32)C1=O : call = ?
Resp: active

Req: Entry Cn1c2ccccc2c2nn(C(=O)c3ccccc3)c(=O)nc21 : call = ?
Resp: inactive

Req: Entry O=C1c2ccccc2-c2cn(Cc3ccccc3)c3cccc(c23)C1c1cccnc1 (stereo not given) : call = ?
Resp: active

New cases:
Req: Entry O=C1OCC2=C1C(c1ccc3c(c1)OCO3)CC(=O)N2c1cccc(Cl)c1 (stereo not given) : call = ?
Resp: inactive

Req: Entry COc1cc(C(F)(F)F)ccc1-c1cc(-c2ccc(F)cc2)n[nH]1 : call = ?
Resp: inactive

Req: Entry COC(=O)c1cc(-c2ccc(C)cc2)n(C(=O)CSc2nc3sc(C(N)=O)c(C)c3c(=O)n2Cc2ccccc2)n1 : call = ?
Resp: inactive

Req: Entry C[C@H]1C(=O)C23CCC1C[C@@]21O[C@@H]2C(C)(C)C=CC(=O)C23COC1=O : call = ?
Resp: inactive

* * *

- Tested on: ACHN renal
- assay-comment: NCI-60 one-dose screen, 48 h (100 = growth as untreated, 0 = no growth, -100 = all killed)
- condition-set: 10 µM unless noted
About 83,000 compounds went through this panel and 20% of them were active in at least one assay; those are over-represented in the sample as a whole.
Listed next: entries and their corresponding growth.
The reply should contain only the number, in %.

Req: Supply growth value. Item: CON=C1C[C@]2(C[C@@H]3C[C@@H](C/C=C(\C)C[C@@H](C)/C=C/C=C4\CO[C@@H]5[C@H](O)C(C)=C[C@@H](C(=O)O3)[C@]45O)O2)O[C@H](/C(C)=C/C(C)C)[C@H]1C
Resp: 44.3

Req: Supply growth value. Item: COc1ccc(C2OCC(C)(C)CO2)cc1OC
Resp: 107

Req: Supply growth value. Item: Clc1ccc2c(c1)C[C@H]1C[C@@H](c3cccs3)N2O1
Resp: 104

Req: Supply growth value. Item: O=C(NCc1ccco1)C1CCN(S(=O)(=O)c2ccc(Cl)cc2)CC1
Resp: 83.5

Req: Supply growth value. Item: CC(C)N1CCN(c2ccc(OC[C@H]3CO[C@](Cn4cncn4)(c4ccc(Cl)cc4Cl)O3)cc2)CC1
Resp: 102

* * *

- Test system: SW-620 colon
- assay-comment: NCI-60 one-dose screen, 48 h (100 = growth as untreated, 0 = no growth, -100 = all killed)
- condition-set: 10 µM unless noted
The panel holds about 83,000 compounds, 20% with a hit somewhere; the sample as a whole holds those more often.
Listed next: entries and their corresponding growth.
The reply should contain only the number, in %.

Req: Supply growth value. Item: CCCCCCCC/C=C\CCCCCCCCOc1cccc(CC(=O)NCC[N+]2(C)CCOCC2)c1
Resp: 89.1

Req: Supply growth value. Item: Cc1nn2c(-c3nc4ccc(Cl)cc4[nH]3)c(-c3ccc(F)cc3)nc2s1
Resp: 91.2

Req: Supply growth value. Item: Cc1cc(=O)oc2c1ccc1oc(C(=O)c3ccccc3)c(C)c12
Resp: 92.2

New cases:
Req: Supply growth value. Item: NC(=O)c1cc(I)ccc1NC(=O)COc1ccccc1
Resp: 23.5

Req: Supply growth value. Item: Cc1ccc(S(=O)(=O)c2ccc3[nH]c(=O)[nH]c(=O)c3c2)cc1
Resp: 105

Req: Supply growth value. Item: O=C(N/N=C(\CS(=O)(=O)c1ccccc1)c1cc2cc(Br)ccc2oc1=O)c1ccccc1
Resp: 102

Req: Supply growth value. Item: COc1cc(-c2ccc3cc(OC)c(OC)c(OC)c3c2)cc(OC)c1OC
Resp: 47.3
